B1: library; numbered along this chain (parent)
chain: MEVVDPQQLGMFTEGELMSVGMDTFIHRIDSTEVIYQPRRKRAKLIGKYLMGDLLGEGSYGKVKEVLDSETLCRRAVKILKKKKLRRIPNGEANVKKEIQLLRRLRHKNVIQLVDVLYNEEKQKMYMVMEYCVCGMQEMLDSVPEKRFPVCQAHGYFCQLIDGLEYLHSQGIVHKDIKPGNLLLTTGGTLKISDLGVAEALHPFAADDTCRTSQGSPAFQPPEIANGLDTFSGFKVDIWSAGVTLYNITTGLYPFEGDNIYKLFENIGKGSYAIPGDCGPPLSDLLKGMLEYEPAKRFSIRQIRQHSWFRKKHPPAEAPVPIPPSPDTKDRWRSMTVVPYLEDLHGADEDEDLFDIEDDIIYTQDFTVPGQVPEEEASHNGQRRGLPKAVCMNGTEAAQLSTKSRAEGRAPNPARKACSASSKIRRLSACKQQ

- Variants of: B1
- Protocol notes: STK11 functional score (HeLa growth suppression), rescaled enrichment; synonymous median = 1, nonsense median = 0 (normalised score)
- Experimental conditions: with HeLa; variant type: missense
Experimental readout: STK11 functional score

- C210W: 0.601
- F231I: 1.62
- L140K: 1.06

Please report STK11 functional score for every entry that follows.
1. K48T
2. A417F
3. P339V

*A*
1: 1.59; 2: 1.15; 3: 0.729

I have 3 variants here; please give me STK11 functional score for each one.
1. T395D
2. W239T
3. N412L

*A*
1.56
-0.0973
1.62

Okay, here is my list. What is STK11 functional score for each of these?
1. Q7W
2. I35N
3. Q100L
4. D327A
5. H202W
6. L427H
7. K423V
8. R426S

*A*
[1.1, 1.02, 0.857, 1.28, 0.389, 1.4, 1.28, 1.5]

Batch of 5 variants: report STK11 functional score for each.
1. R28I
2. Q137M
3. T212L
4. T402Y
5. I29M

*A*
1. 1.41
2. 1.54
3. 1.06
4. 1.43
5. 0.901
